Quick reference for solubility among some compounds
Experiment: Solubility of ionic liquid monomers (IL) and their polymers (PIL) in solvents
Format: physicochemical
Details: organic solvent or mixture; 10 mg/ml; DCM; IL (monomer), first symbol; read-out: Solubility (IL/PIL) DCM

C=Cc1cn(CCOCCOCCOC)n[n+]1C
> 10000 µg/mL

Note: attention shifts to another entry.
For "C=Cc1cn(CCCCCCCCCC)n[n+]1C" the compound record lists solubility as < 10000 µg/mL

====

Examples of compounds with documented solubility follow.
Test: Solubility of ionic liquid monomers (IL) and their polymers (PIL) in solvents
Format: physicochemical
Settings: organic solvent or mixture; 10 mg/ml; ACN; IL (monomer), first symbol; read-out: Solubility (IL/PIL) ACN

C=Cc1cn(CCOCCOCCOC)n[n+]1C [TEGMVT]
> 10000 µg/mL

Next compound, please.
Query C=Cc1cn(CCCCCCCCCC)n[n+]1C [DMVT] yields solubility of > 10000 µg/mL

Reference for the values: patent US9969823B1
